Below is a list of entries, each paired with its recorded logP value.
experiment: Octanol/water partition coefficient, log P of the compound; assay type: physicochemical
A bare number is all that is needed in reply.

The cases that follow already have their logP on record.
{"Molecule": "O=C(Cn1ccnc1[N+](=O)[O-])NCc1ccccc1 [BENZNIDAZOLE]", "logP": 0.78}
{"Molecule": "CCCCCc1cn(C/C=C(/C)CC/C=C(\\C)CCC=C(C)C)nn1", "logP": 7.5}
{"Molecule": "CCCc1cn(C/C=C(/C)CC/C=C(\\C)CCC=C(C)C)nn1", "logP": 6.5}
{"Molecule": "COC(=O)c1cn(C/C=C(\\C)CCC=C(C)C)nn1", "logP": 3.2}
{"Molecule": "CCCCCCCCc1cn(C/C=C(\\C)CCC=C(C)C)nn1", "logP": 6.92}
{"Molecule": "COC(=O)c1cn(C/C=C(/C)CC/C=C(\\C)CCC=C(C)C)nn1", "logP": 5.25}
{"Molecule": "CC(C)=CCC/C(C)=C/CC/C(C)=C/Cn1cc(-c2ccccc2)nn1", "logP": 6.95}
{"Molecule": "CCCCCCCCc1cn(CC=C(C)C)nn1", "logP": 4.92}

For `CCCc1cn(C/C=C(\C)CCC=C(C)C)nn1` , write its logP. 4.5

Provide one value: measured logP of `COC(=O)c1cn(C/C=C(/C)CCC=C(C)C)nn1` 3.2

Hello, please tell me recorded logP for this one: `CCCCCc1cn(C/C=C(\C)CCC=C(C)C)nn1` 5.45

Let me know recorded logP for `COC(=O)c1cn(CC=C(C)C)nn1` , thanks. 1.3

Origin of values: ChEMBL document CHEMBL4261495
